Source of measurements: paper PMC4286351

- assay target: rat P450 2B1 (Rattus norvegicus, UniProt P00176)
- Sequence (P00176 whole entry): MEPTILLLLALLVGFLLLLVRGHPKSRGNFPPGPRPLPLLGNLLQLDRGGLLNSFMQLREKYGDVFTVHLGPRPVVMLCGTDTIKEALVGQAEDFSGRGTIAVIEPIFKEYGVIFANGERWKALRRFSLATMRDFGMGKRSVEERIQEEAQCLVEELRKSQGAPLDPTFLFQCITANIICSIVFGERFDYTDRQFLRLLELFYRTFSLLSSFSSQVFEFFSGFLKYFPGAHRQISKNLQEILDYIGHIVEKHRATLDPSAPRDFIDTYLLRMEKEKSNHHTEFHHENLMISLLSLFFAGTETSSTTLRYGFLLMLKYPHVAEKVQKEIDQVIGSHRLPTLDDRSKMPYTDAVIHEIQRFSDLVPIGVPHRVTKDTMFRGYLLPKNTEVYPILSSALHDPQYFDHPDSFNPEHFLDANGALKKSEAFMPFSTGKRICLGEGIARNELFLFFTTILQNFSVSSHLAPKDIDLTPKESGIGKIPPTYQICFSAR
- test: biochemical
- Type: biochemical
- applied conditions: rat P450 2B1, PROD activity
property label: inhibition potency for P450 2B1 (in words)

CCCOc1cccc2[nH]c3ccccc3c12 : good inhibition potency
COc1cccc2[nH]c3ccccc3c12 : good inhibition potency
CCOc1cccc2[nH]c3ccccc3c12 : good inhibition potency
C#CCOc1cccc2[nH]c3ccccc3c12 : good inhibition potency
